- tgt: human PXR (Homo sapiens)
- Construct: The GAL4-NR chimeric cell lines provide uniform cellular model differing just in receptor LBDs; expressed in transfected cells; host or cells: HG5LN PXR (HeLa-derived; described in Delfosse et al., 2015)
- Sequence (O75469 146-433 limits assumed): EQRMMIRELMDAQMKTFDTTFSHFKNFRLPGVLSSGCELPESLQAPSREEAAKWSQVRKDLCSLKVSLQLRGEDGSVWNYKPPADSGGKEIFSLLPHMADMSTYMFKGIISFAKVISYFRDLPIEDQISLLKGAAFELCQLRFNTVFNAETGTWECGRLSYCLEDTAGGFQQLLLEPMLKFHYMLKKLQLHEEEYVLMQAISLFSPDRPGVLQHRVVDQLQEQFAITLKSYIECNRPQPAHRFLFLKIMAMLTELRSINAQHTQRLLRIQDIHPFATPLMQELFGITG
- method.notes: HG5LN PXR reporter cell line, agonist mode
- Type: cell-based
- particulars: maximal luciferase activity at 10^-5 M (10^-6 M *, 3 10^-6 M **); 100% = 3 µM SR12813; DMSO 19 ± 2; NE = No effect
parameter.measured: PXR % max act (%)
Give bare numbers, in %.

# count of solved cases: 3
Clc1ccc(-c2nc3sccn3c2/C=N/OCc2ccc(Cl)c(Cl)c2)cc1 [CITCO] | 54
Cc1cc(C)c(S(=O)(=O)N(CCc2cccc(Br)c2)Cc2ccc(-c3cccc(S(C)(=O)=O)c3)cc2)c(C)c1 [SR9243] | 87
Clc1ccccc1C(c1ccccc1)(c1ccccc1)n1ccnc1 [Clotrimazole, clotrimazole] | 55

Shifting focus to the compound that follows.
Dear colleague, I am looking for the recorded PXR % max act of the following compound: O=C(O)Cc1cccc(OCCCN(Cc2cccc(C(F)(F)F)c2Cl)CC(c2ccccc2)c2ccccc2)c1 [GW3965]
88
